assay: AUC (0 to 24 hrs) in C57BL/6 mouse at 15 mg/kg, iv by LC-MS/MS analysis; format: ADME, organism-based; design: time < 24 hr, dose 15 mg/kg, route intravenous; conditions: in vivo
quantity measured: AUC(0-t) at 24 h (ng·h/mL)
Express your answer in ng·h/mL, writing the number without its unit.

What measured AUC(0-t) at 24 h goes with CCN1CCN(CCCn2cnc3c(N4CCN(CC)CC4)ncnc32)CC1 ?
50900

----------
assay: Half life in C57BL/6 mouse at 15 mg/kg, po administered via gavage by LC-MS/MS analysis; conditions: in vivo
quantity measured: half-life (h)
Express your answer in h, writing the number without its unit.

What measured half-life goes with CCN1CCN(CCCn2cnc3c(N4CCN(CC)CC4)ncnc32)CC1 ?
4.6

----------
Molecular target: UniProt:Q9NYK1
Sequence (Q9NYK1 whole entry): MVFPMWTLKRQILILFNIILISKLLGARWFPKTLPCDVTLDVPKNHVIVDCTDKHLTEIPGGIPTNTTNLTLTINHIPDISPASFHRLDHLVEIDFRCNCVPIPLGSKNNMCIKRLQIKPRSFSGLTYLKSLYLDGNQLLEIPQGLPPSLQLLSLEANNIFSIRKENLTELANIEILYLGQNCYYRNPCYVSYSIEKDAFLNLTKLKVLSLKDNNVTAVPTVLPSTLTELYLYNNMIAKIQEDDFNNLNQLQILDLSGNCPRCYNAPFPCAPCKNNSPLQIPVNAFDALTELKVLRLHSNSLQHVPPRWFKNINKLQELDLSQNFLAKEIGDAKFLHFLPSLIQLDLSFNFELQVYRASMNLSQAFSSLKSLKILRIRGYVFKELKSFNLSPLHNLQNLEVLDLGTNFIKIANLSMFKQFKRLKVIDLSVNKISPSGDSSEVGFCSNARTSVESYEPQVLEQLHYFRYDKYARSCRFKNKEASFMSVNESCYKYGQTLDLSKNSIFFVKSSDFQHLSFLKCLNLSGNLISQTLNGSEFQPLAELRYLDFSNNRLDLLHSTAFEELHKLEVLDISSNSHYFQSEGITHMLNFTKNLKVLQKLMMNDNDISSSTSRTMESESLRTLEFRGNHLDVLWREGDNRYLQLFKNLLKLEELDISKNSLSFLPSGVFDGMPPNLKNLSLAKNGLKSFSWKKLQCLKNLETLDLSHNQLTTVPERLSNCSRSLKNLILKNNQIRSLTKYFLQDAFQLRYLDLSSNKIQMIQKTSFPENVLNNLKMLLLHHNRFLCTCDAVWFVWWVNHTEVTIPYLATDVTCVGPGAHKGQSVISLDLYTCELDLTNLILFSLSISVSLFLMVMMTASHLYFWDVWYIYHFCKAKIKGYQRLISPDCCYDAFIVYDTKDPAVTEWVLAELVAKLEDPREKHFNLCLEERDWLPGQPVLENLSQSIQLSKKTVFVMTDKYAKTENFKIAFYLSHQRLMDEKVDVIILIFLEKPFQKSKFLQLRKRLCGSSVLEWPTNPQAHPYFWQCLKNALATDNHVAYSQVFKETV
quantity measured: IC50
Respond with a number, then the unit of measure.

What measured IC50 goes with CCN1CCN(c2ncnc3c2ncn3CCCN2CCCC2)CC1 ?
48.3 µM

What measured IC50 goes with CCN(CCO)CCCC(C)Nc1ccnc2cc(Cl)ccc12 (stereo not given) [HYDROXYCHLOROQUINE] ?
8.6 µM

What measured IC50 goes with CCN1CCN(CCCn2c(O)nc3c(N)ncnc32)CC1 ?
43.1 µM

What measured IC50 goes with CCN1CCN(CCCn2cnc3c(N4CCNCC4)ncnc32)CC1 ?
39.3 µM

What measured IC50 goes with CCN1CCN(CCCn2cnc3c(N4CCN(CC)CC4)ncnc32)CC1 ?
4.7 µM

----------
test: Cmax in C57BL/6 mouse at 15 mg/kg, po administered via gavage by LC-MS/MS analysis; assay type: ADME, organism-based; set-up: dose 15 mg/kg, route oral; settings: in vivo
quantity measured: Cmax (ng/mL)
Express your answer in ng/mL, writing the number without its unit.

What measured Cmax goes with CCN1CCN(CCCn2cnc3c(N4CCN(CC)CC4)ncnc32)CC1 ?
2600

----------
test: Efflux ratio of apparent permeability across basal to apical side over apical to basal side in human Caco2 cells at 10 uM measured after 120 mins by LC-MS/MS analysis; conditions: Caco-2
quantity measured: efflux ratio at 2 h, 10 µM

What measured efflux ratio at 2 h, 10 µM goes with CCN1CCN(CCCn2cnc3c(N4CCN(CC)CC4)ncnc32)CC1 ?
2.6

----------
test: AUC (0 to 24 hrs) in C57BL/6 mouse at 15 mg/kg, po administered via gavage by LC-MS/MS analysis; assay type: ADME, organism-based; parameters: time < 24 hr, dose 15 mg/kg, route oral; conditions: in vivo
quantity measured: AUC(0-t) at 24 h (ng·h/mL)
Express your answer in ng·h/mL, writing the number without its unit.

What measured AUC(0-t) at 24 h goes with CCN1CCN(CCCn2cnc3c(N4CCN(CC)CC4)ncnc32)CC1 ?
36100

----------
experiment: physchem; settings: phosphate buffer, pH 7.4
Description: Aqueous solubility of the compound in pH 7.4 0.25 M phosphate buffer at 500 uM incubated for 18 hrs under stirred condition by UV-HPLC analysis
quantity measured: solubility at 18 h, 500 µM (µg/mL)
Express your answer in µg/mL, writing the number without its unit.

What measured solubility at 18 h, 500 µM goes with CCN1CCN(CCCn2cnc3c(N4CCN(CC)CC4)ncnc32)CC1 ?
200

----------
assay: Clearance in mouse liver microsomes at 100 uM by LC-MS/MS analysis relative to hepatic blood flow
quantity measured: hepatic extraction ratio at 100 µM
Give your answer as a number; write no unit.

What measured hepatic extraction ratio at 100 µM goes with CCN1CCN(CCCn2cnc3c(N4CCN(CC)CC4)ncnc32)CC1 ?
0.144

----------
experiment: in vitro; details: human, plasma
Description: Stability of the compound in human plasma assessed as parent compound remaining at 25 uM measured after 2 hrs by LC-MS/MS analysis
quantity measured: remaining at 2 h, 25 µM (%)
Express your answer in %, writing the number without its unit.

What measured remaining at 2 h, 25 µM goes with CCN1CCN(CCCn2cnc3c(N4CCN(CC)CC4)ncnc32)CC1 ?
95

----------
target: Toll-like receptor 7 (Homo sapiens); assay: Agonist activity at human TLR7 expressed in HEK-Blue cells assessed as induction of NFkappaB activation by measuring increase in SEAP level after overnight incubation using qunati-blue reagent by SEAP reporter gene-based spectrophotometric method
quantity measured: EC50 (nM)
Express your answer in nM, writing the number without its unit.

What measured EC50 goes with CCCCOc1nc(N)c2nc(O)n(CCCN3CCCCC3)c2n1 ?
2600

----------
experiment: in vitro; details: mouse, plasma
Description: Stability of the compound in mouse plasma assessed as parent compound remaining at 25 uM measured after 2 hrs by LC-MS/MS analysis
quantity measured: remaining at 2 h, 25 µM
Respond with a number, then the unit of measure.

What measured remaining at 2 h, 25 µM goes with CCN1CCN(CCCn2cnc3c(N4CCN(CC)CC4)ncnc32)CC1 ?
99.2%

----------
assay: Apparent permeability across basal to apical side in human Caco2 cells at 10 uM measured after 120 mins by LC-MS/MS analysis; details: Caco-2
quantity measured: Papp B→A at 2 h, 10 µM (×10⁻⁶ cm/s)
Express your answer in ×10⁻⁶ cm/s, writing the number without its unit.

What measured Papp B→A at 2 h, 10 µM goes with CCN1CCN(CCCn2cnc3c(N4CCN(CC)CC4)ncnc32)CC1 ?
9.28

----------
test: Apparent permeability across apical to basal side in human Caco2 cells at 10 uM measured after 120 mins by LC-MS/MS analysis; conditions: Caco-2
quantity measured: Papp A→B at 2 h, 10 µM (×10⁻⁶ cm/s)
Express your answer in ×10⁻⁶ cm/s, writing the number without its unit.

What measured Papp A→B at 2 h, 10 µM goes with CCN1CCN(CCCn2cnc3c(N4CCN(CC)CC4)ncnc32)CC1 ?
3.57
